// data source = paper PMC8304634

Each entry below carries its recorded melting point.

Past entries and their recorded results:
>>> value_reported("CC(=O)OCC12CCCCC1C(O)CO2 (centres unmarked)")
"123 to 125 °C"
>>> value_reported("CC12CC(OC(=O)c3ccccc3)C3CCCCC3(CO1)OO2 (centres unmarked)")
"100 to 102 °C"
>>> value_reported("COc1ccc(C(=O)OC2CC3(C)OCC4(CCCCC24)OO3)cc1 (centres unmarked)")
"155 to 157 °C"
>>> value_reported("CC12CC(O)C3CCCCC3(CO1)OO2 (racemic)")
"109 to 111 °C"
>>> value_reported("CC12CC(OC(=O)c3ccc(Cl)cc3)C3CCCCC3(CO1)OO2 (centres unmarked)")
"110 to 112 °C"

q: Which melting point reading was recorded for the molecule "C[C@]12C[C@H](O)[C@@H]3CCCC[C@@]3(CO1)OO2" ?
a: 107 to 109 °C

q: Moving on to CC12CC(OC(=O)c3ccc(F)cc3)C3CCCCC3(CO1)OO2 (centres unmarked)
a: 88 to 90 °C

q: Moving on to "C[C@@]12C[C@@H](O)[C@H]3CCCC[C@]3(CO1)OO2"
a: 108 to 110 °C
